Taken from PubChem BioAssay (NCI).

# Test system: LOX IMVI melanoma
# testProtocol: NCI tumour cell line growth inhibition, 48 h
reportedEndpoint: TGI (µM)

>>> reportedresult("COc1cc(/C=C/c2ccc3c(Br)cc(Br)c(O)c3n2)ccc1O")
11.4
>>> reportedresult("Cc1ccc(C2C3Cc4ccccc4C3=NN2c2ccc(S(=O)(=O)/N=c3\\scc(-c4ccccc4)n3-c3ccccc3)cc2)cc1 (stereo not given)")
31.2
>>> reportedresult("C[n+]1c2ccccc2nc2c(N)cc(N)cc21")
94
>>> reportedresult("C[CH2][Hg][S]c1ccccc1C(=O)O")
2.16
>>> reportedresult("CC(C)(C)c1cc2nc(c1)C(C(F)(F)F)(C(F)(F)F)OB(Br)OC2(C(F)(F)F)C(F)(F)F")
3.78
>>> reportedresult("CCCc1[nH]c2ccccc2c1-c1c(CCC)[nH]c2ccccc12")
17.3
